# procedureText: The drug is tested on Bacteroides sp. WH2 strain: WH2 for biotransformation. The drug concentrations were measured before and after a 12-h incubation by liquid-chromatography-coupled mass spectrometry (LC–MS)
# conditionsUsed: bacteroides sp. wh2, 12 h, 2 µM
measuredEndpoint: Bacterial Biotransformation

Guide cases for Bacterial Biotransformation, answers given:
{"molecule": "Cc1ccc(-c2cc(C(F)(F)F)nn2-c2ccc(S(N)(=O)=O)cc2)cc1 [CELECOXIB]", "Bacterial Biotransformation": "Compound NOT metabolized"}
{"molecule": "C=CCc1ccccc1OCC(O)CNC(C)C (centres undefined) [ALPRENOLOL]", "Bacterial Biotransformation": "Compound NOT metabolized"}
{"molecule": "Fc1ccc([C@@H]2CCNC[C@H]2COc2ccc3c(c2)OCO3)cc1 [PAROXETINE]", "Bacterial Biotransformation": "Compound NOT metabolized"}
{"molecule": "NS(=O)(=O)c1cc2c(cc1Cl)N=C(CSCc1ccccc1)NS2(=O)=O [BENZTHIAZIDE]", "Bacterial Biotransformation": "Compound NOT metabolized"}

Entry under test: CN(C)CCC=C1c2ccccc2C=Cc2ccccc21 [CYCLOBENZAPRINE] . Its Bacterial Biotransformation was Compound NOT metabolized

Entry under test: OC(CCN1CCCCC1)(c1ccccc1)C1CC2C=CC1C2 (centres undefined) [BIPERIDEN] . Its Bacterial Biotransformation was Compound NOT metabolized

Entry under test: CN[C@H]1CC[C@@H](c2ccc(Cl)c(Cl)c2)c2ccccc21 [SERTRALINE] . Its Bacterial Biotransformation was Compound NOT metabolized

Entry under test: Cc1ccc(-c2nc3ccc(C)cn3c2CC(=O)N(C)C)cc1 [ZOLPIDEM] . Its Bacterial Biotransformation was Compound NOT metabolized

Entry under test: CN1CCN2c3ccccc3Cc3ccccc3C2C1 (centres undefined) [MIANSERIN] . Its Bacterial Biotransformation was Compound NOT metabolized

Entry under test: O=C1CN2Cc3c(ccc(Cl)c3Cl)N=C2N1 [ANAGRELIDE] . Its Bacterial Biotransformation was Compound NOT metabolized

Entry under test: COc1c(C)c2c(c(O)c1C/C=C(\C)CCC(=O)OCCN1CCOCC1)C(=O)OC2 [MYCOPHENOLATE MOFETIL] . Its Bacterial Biotransformation was Compound metabolized

Entry under test: COC(=O)Nc1nc2ccc(C(=O)c3ccccc3)cc2[nH]1 [MEBENDAZOLE] . Its Bacterial Biotransformation was Compound NOT metabolized

Entry under test: COc1ccc2c3c1O[C@H]1C[C@@H](O)C=C[C@@]31CCN(C)C2 [GALANTAMINE] . Its Bacterial Biotransformation was Compound metabolized

Entry under test: O=C(O)CCc1nc(-c2ccccc2)c(-c2ccccc2)o1 [OXAPROZIN] . Its Bacterial Biotransformation was Compound metabolized

Entry under test: CN(C)CCC=C1c2ccccc2COc2ccccc21 [DOXEPIN] . Its Bacterial Biotransformation was Compound NOT metabolized

Entry under test: CC(C)(C)N.CCC[C@H](N[C@@H](C)C(=O)N1[C@H](C(=O)O)C[C@@H]2CCCC[C@@H]21)C(=O)OCC [PERINDOPRIL ERBUMINE] . Its Bacterial Biotransformation was Compound NOT metabolized

Entry under test: CCCCC(=O)N(Cc1ccc(-c2ccccc2-c2nnn[nH]2)cc1)[C@H](C(=O)O)C(C)C . Its Bacterial Biotransformation was Compound NOT metabolized

Entry under test: c1ccc2[nH]c(-c3cscn3)nc2c1 [THIABENDAZOLE] . Its Bacterial Biotransformation was Compound NOT metabolized

Entry under test: O=P1(N(CCCl)CCCl)NCCCO1 (centres undefined) [CYCLOPHOSPHAMIDE ANHYDROUS] . Its Bacterial Biotransformation was Compound NOT metabolized

Entry under test: CCN(CC)CCOC(=O)C(Cc1cccc2ccccc12)CC1CCCO1.O=C(O)C(=O)O (centres undefined) [NAFRONYL OXALATE] . Its Bacterial Biotransformation was Compound NOT metabolized

Entry under test: C[C@@H]1CC[C@H]2[C@@H](C)C(=O)O[C@@H]3O[C@@]4(C)CC[C@@H]1[C@]32OO4 [ARTEMISININ] . Its Bacterial Biotransformation was Compound metabolized

Entry under test: CCc1cccc2c3c([nH]c12)C(CC)(CC(=O)O)OCC3 (centres undefined) [ETODOLAC] . Its Bacterial Biotransformation was Compound NOT metabolized

====

# conditionsUsed: segatella copri, 12 h, 2 µM
# Description: The drug is tested on Prevotella copri strain: DSM18205 for biotransformation. The drug concentrations were measured before and after a 12-h incubation by liquid-chromatography-coupled mass spectrometry (LC–MS)
measuredEndpoint: Bacterial Biotransformation

Guide cases for Bacterial Biotransformation, answers given:
{"molecule": "Nc1ccc(/N=N/c2ccccc2)c(N)n1 [PHENAZOPYRIDINE]", "result": "Compound metabolized"}
{"molecule": "COC1=CC(=O)C[C@@H](C)[C@]12Oc1c(Cl)c(OC)cc(OC)c1C2=O [GRISEOFULVIN]", "result": "Compound metabolized"}
{"molecule": "CC(=O)Nc1ccc(OC(C)=O)cc1 [DIACETAMATE]", "result": "Compound metabolized"}
{"molecule": "COc1ccccc1N1CCN(CC(O)COc2cccc3ccccc23)CC1 (stereo not drawn) [NAFTOPIDIL]", "result": "Compound NOT metabolized"}
{"molecule": "Nc1nc(NC2CC2)c2ncn([C@H]3C=C[C@@H](CO)C3)c2n1.Nc1nc(NC2CC2)c2ncn([C@H]3C=C[C@@H](CO)C3)c2n1.O=S(=O)(O)O [ABACAVIR SULFATE]", "result": "Compound NOT metabolized"}

Entry under test: CC(CCc1ccccc1)NCC(O)c1ccc(O)c(C(N)=O)c1 (stereo not drawn) [LABETALOL] . Its Bacterial Biotransformation was Compound NOT metabolized

Entry under test: C#C[C@]1(O)CC[C@H]2[C@@H]3CCC4=CC(=O)CC[C@@H]4[C@H]3CC[C@@]21CC [LEVONORGESTREL] . Its Bacterial Biotransformation was Compound NOT metabolized

Entry under test: OCCN1CCN(CCCN2c3ccccc3Sc3ccc(C(F)(F)F)cc32)CC1 [FLUPHENAZINE] . Its Bacterial Biotransformation was Compound metabolized

====

# procedureText: The drug is tested on Alistipes indistinctus strain: DSM22520 for biotransformation. The drug concentrations were measured before and after a 12-h incubation by liquid-chromatography-coupled mass spectrometry (LC–MS)
# conditionsUsed: 2 µM
measuredEndpoint: Bacterial Biotransformation

{"compound": "CN1C[C@H](C(=O)N[C@]2(C)O[C@@]3(O)[C@@H]4CCCN4C(=O)[C@H](Cc4ccccc4)N3C2=O)C=C2c3cccc4[nH]cc(c34)C[C@H]21.CN1C[C@H](C(=O)N[C@]2(C)O[C@@]3(O)[C@@H]4CCCN4C(=O)[C@H](Cc4ccccc4)N3C2=O)C=C2c3cccc4[nH]cc(c34)C[C@H]21.O=C(O)C(O)C(O)C(=O)O [ERGOTAMINE TARTRATE]", "result": "Compound NOT metabolized"}
{"compound": "Cc1cc2c(s1)Nc1ccccc1N=C2N1CCN(C)CC1 [OLANZAPINE]", "result": "Compound NOT metabolized"}
{"compound": "CC(C)(Oc1ccc(CCNC(=O)c2ccc(Cl)cc2)cc1)C(=O)O [BEZAFIBRATE]", "result": "Compound NOT metabolized"}
{"compound": "COC1=CC(=O)C[C@@H](C)[C@]12Oc1c(Cl)c(OC)cc(OC)c1C2=O [GRISEOFULVIN]", "result": "Compound NOT metabolized"}
{"compound": "CCCN1C[C@H](CSC)C[C@@H]2c3cccc4[nH]cc(c34)C[C@H]21.CS(=O)(=O)O [PERGOLIDE MESYLATE]", "result": "Compound NOT metabolized"}

Entry under test: CC(C)NCC(O)c1ccc(NS(C)(=O)=O)cc1 (stereo not given) [SOTALOL] . Its Bacterial Biotransformation was Compound NOT metabolized

Entry under test: N[C@@H](Cc1ccc(N(CCCl)CCCl)cc1)C(=O)O . Its Bacterial Biotransformation was Compound metabolized

====

# procedureText: The drug is tested on Bacteroides sp. WH2 strain: WH2 for biotransformation. The drug concentrations were measured before and after a 12-h incubation by liquid-chromatography-coupled mass spectrometry (LC–MS)
# conditionsUsed: bacteroides sp. wh2, 12 h, 2 µM

{"compound": "COc1ccccc1N1CCN(CC(O)COc2cccc3ccccc23)CC1 (centres undefined)", "Bacterial Biotransformation": "Compound NOT metabolized"}
{"compound": "CN(C(=O)CN(CCO)CC(=O)N(C)C(C)(C)Cc1ccccc1)C(C)(C)Cc1ccccc1", "Bacterial Biotransformation": "Compound NOT metabolized"}
{"compound": "CN(C)C(=O)C(CCN1CCC(O)(c2ccc(Cl)cc2)CC1)(c1ccccc1)c1ccccc1 [LOPERAMIDE]", "Bacterial Biotransformation": "Compound NOT metabolized"}

====

# procedureText: The drug is tested on Bacteroides ovatus strain: ATCC8483 for biotransformation. The drug concentrations were measured before and after a 12-h incubation by liquid-chromatography-coupled mass spectrometry (LC–MS)
# conditionsUsed: 2 µM
measuredEndpoint: Bacterial Biotransformation

{"compound": "CN(C(=O)CN(CCO)CC(=O)N(C)C(C)(C)Cc1ccccc1)C(C)(C)Cc1ccccc1", "Bacterial Biotransformation": "Compound NOT metabolized"}
{"compound": "CC[C@@H](CO)NC(=O)[C@@H]1C=C2c3cccc4c3c(cn4C)C[C@H]2N(C)C1.O=C(O)/C=C\\C(=O)O [METHYSERGIDE MALEATE]", "Bacterial Biotransformation": "Compound metabolized"}
{"compound": "CC(=O)CCCCn1c(=O)c2c(ncn2C)n(C)c1=O", "Bacterial Biotransformation": "Compound NOT metabolized"}
{"compound": "OC(CCN1CCCCC1)(c1ccccc1)C1CCCCC1 (stereo not drawn)", "Bacterial Biotransformation": "Compound NOT metabolized"}
{"compound": "CCOC(=O)[C@H](CCc1ccccc1)N[C@@H](C)C(=O)N1CCC[C@H]1C(=O)O.O=C(O)/C=C\\C(=O)O [ENALAPRIL MALEATE]", "Bacterial Biotransformation": "Compound NOT metabolized"}

Entry under test: CN(C)CCC=C1c2ccccc2COc2ccccc21 [DOXEPIN] . Its Bacterial Biotransformation was Compound NOT metabolized

Entry under test: COc1ccc2c(c1OC)C(=O)O[C@@H]2[C@H]1c2c(cc3c(c2OC)OCO3)CCN1C . Its Bacterial Biotransformation was Compound metabolized

Entry under test: CC(Oc1c(Cl)cccc1Cl)C1=NCCN1 (stereo not drawn) . Its Bacterial Biotransformation was Compound NOT metabolized
